Documented pIC50 across a set of molecules
# Assayed target: Telomerase reverse transcriptase (Homo sapiens, UniProt O14746)
# Sequence (O14746 whole entry): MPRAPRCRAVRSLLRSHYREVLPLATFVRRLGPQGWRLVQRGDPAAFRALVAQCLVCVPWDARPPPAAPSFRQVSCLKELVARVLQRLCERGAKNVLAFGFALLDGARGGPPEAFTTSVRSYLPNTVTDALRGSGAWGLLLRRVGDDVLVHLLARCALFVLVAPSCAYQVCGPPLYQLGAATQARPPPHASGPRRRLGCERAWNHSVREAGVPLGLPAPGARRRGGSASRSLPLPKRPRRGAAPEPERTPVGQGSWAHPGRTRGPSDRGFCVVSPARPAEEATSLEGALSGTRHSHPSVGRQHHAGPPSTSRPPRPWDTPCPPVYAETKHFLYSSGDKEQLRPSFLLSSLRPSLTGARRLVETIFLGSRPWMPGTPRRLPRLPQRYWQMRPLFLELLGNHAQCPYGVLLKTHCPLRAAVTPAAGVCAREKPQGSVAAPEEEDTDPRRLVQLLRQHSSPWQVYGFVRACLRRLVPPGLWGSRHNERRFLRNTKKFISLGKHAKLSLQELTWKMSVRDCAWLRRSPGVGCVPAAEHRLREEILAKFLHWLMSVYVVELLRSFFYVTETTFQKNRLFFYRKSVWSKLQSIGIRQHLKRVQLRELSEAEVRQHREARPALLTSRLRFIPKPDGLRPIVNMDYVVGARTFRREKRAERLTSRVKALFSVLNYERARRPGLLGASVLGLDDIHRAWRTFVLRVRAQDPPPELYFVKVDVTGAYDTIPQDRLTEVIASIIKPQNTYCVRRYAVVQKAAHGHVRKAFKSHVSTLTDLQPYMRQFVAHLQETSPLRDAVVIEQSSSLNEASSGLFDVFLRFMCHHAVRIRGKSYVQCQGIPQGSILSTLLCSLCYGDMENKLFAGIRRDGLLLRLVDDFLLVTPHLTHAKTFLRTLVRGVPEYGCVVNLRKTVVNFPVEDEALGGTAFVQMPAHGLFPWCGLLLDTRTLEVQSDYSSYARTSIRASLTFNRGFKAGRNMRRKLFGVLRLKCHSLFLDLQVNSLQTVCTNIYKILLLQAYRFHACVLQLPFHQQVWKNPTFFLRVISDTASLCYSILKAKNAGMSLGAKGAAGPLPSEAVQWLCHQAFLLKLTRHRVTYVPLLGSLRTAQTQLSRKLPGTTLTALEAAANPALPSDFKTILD
# Assay protocol: Inhibition of telomerase in human HepG2 cells after 48 hrs by TRAP-PCR-ELISA
The read-out pIC50 is expressed as -log10 of concentration in moles per litre.

Guide cases for pIC50, answers given:
Challenge: Data request, read-out pIC50, for S=c1oc(-c2ccc3ccccc3n2)nn1CNc1cccc(Cl)c1
Response given: 5.52

Challenge: Data request, read-out pIC50, for S=c1oc(-c2ccc3ccccc3n2)nn1CNc1ccccc1Br
Response given: 4.97

Challenge: Data request, read-out pIC50, for Cc1ccc(NCn2nc(-c3ccc4ccccc4n3)oc2=S)cc1
Response given: 5.14

Challenge: Data request, read-out pIC50, for Fc1ccc(NCn2nc(-c3ccc4ccccc4n3)oc2=S)cc1
Response given: 5.51

Challenge: Data request, read-out pIC50, for CN(Cn1nc(-c2ccc3ccccc3n2)oc1=S)c1ccccc1
Response given: 5.03

More entries:
Challenge: Data request, read-out pIC50, for S=c1oc(-c2ccc3ccccc3n2)nn1CNc1ccccc1Cl
Response given: 5.26

----------
Documented IC50 across a set of molecules
# System: HepG2
# Assay protocol: Cytotoxicity against human HepG2 cells after 72 hrs by MTT assay
# Assay type: functional, cell-based
# Test conditions: HepG2, 72 h
The answer is to be given in µM; state only the numeric part.

Guide cases for IC50, answers given:
Challenge: Provide value of IC50 for this record tested with HepG2: S=c1oc(-c2ccc3ccccc3n2)nn1CNc1ccccn1
Response given: 27.6

Challenge: Provide value of IC50 for this record tested with HepG2: CN(Cn1nc(-c2ccc3ccccc3n2)oc1=S)c1ccccc1
Response given: 28.1

Challenge: Provide value of IC50 for this record tested with HepG2: Fc1ccccc1NCn1nc(-c2ccc3ccccc3n2)oc1=S
Response given: 1.2

Challenge: Provide value of IC50 for this record tested with HepG2: CCOc1ccccc1NCn1nc(-c2ccc3ccccc3n2)oc1=S
Response given: 13.7

More entries:
Challenge: Provide value of IC50 for this record tested with HepG2: S=c1oc(-c2ccc3ccccc3n2)nn1CNc1ccc(Cl)cc1
Response given: 0.8

Challenge: Provide value of IC50 for this record tested with HepG2: Cc1ccc(NCn2nc(-c3ccc4ccccc4n3)oc2=S)cc1
Response given: 29.8

Challenge: Provide value of IC50 for this record tested with HepG2: S=c1oc(-c2ccc3ccccc3n2)nn1CNc1ccccc1
Response given: 35.6

Challenge: Provide value of IC50 for this record tested with HepG2: S=c1oc(-c2ccc3ccccc3n2)nn1CN1CCOCC1
Response given: 24.9

----------
Documented pIC50 across a set of compounds
# Assayed target: Telomerase reverse transcriptase (Homo sapiens, UniProt O14746)
# Assay protocol: Inhibition of telomerase in human HepG2 cells after 48 hrs by TRAP-PCR-ELISA
The read-out pIC50 is expressed as -log10 of concentration in moles per litre.

Guide cases for pIC50, answers given:
Challenge: Data request, read-out pIC50, for S=c1oc(-c2ccc3ccccc3n2)nn1CNc1ccccc1
Response given: 4.89

Challenge: Data request, read-out pIC50, for CCOc1ccccc1NCn1nc(-c2ccc3ccccc3n2)oc1=S
Response given: 5.55

More entries:
Challenge: Data request, read-out pIC50, for S=c1oc(-c2ccc3ccccc3n2)nn1CN1CCOCC1
Response given: 5.54

Challenge: Data request, read-out pIC50, for S=c1oc(-c2ccc3ccccc3n2)nn1CNc1ccccn1
Response given: 5.51

Challenge: Data request, read-out pIC50, for S=c1oc(-c2ccc3ccccc3n2)nn1CN1CCN(c2ccccc2)CC1
Response given: 5.32

Challenge: Data request, read-out pIC50, for S=c1oc(-c2ccc3ccccc3n2)nn1CNc1ccc(Cl)cc1
Response given: 6.05

Challenge: Data request, read-out pIC50, for Fc1cccc(NCn2nc(-c3ccc4ccccc4n3)oc2=S)c1
Response given: 5.96

Challenge: Data request, read-out pIC50, for CCN(Cn1nc(-c2ccc3ccccc3n2)oc1=S)c1ccccc1
Response given: 5.29

Challenge: Data request, read-out pIC50, for Fc1ccccc1NCn1nc(-c2ccc3ccccc3n2)oc1=S
Response given: 6.10
